# Test Target: Salicyl-AMP ligase / salicyl-S-ArCP synthetase (Mycobacterium tuberculosis, UniProt P71716)
# Sequence (P71716 whole entry): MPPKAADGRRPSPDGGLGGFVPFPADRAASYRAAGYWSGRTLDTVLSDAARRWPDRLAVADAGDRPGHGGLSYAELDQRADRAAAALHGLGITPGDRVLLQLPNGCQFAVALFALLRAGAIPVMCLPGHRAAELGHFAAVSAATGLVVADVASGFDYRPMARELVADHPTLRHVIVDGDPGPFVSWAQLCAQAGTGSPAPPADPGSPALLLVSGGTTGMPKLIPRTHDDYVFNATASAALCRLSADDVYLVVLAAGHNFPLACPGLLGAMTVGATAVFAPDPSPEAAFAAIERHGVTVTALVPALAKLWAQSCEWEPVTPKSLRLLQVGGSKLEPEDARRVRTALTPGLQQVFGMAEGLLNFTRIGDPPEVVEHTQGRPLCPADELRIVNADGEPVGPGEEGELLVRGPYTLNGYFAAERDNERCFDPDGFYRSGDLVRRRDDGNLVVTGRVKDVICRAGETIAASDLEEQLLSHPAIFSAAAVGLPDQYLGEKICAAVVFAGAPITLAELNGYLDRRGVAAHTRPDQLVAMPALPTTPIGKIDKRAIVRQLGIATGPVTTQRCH
# Assay Explanation: Inhibition of Mycobacterium tuberculosis recombinant MbtA expressed in Escherichia coli by ATP/PPi exchange assay
# Measurement Conditions: read-out: Ki app
# pKi listing for each entry below
# log scale: pKi equals minus log10 of the concentration in mol/L

// worked examples, pKi included
Nc1ccc(C(=O)NS(=O)(=O)OC[C@H]2O[C@@H](n3cnc4c(N)ncnc43)[C@H](O)[C@@H]2O)c(O)c1    7.40
Nc1ncnc2c1ncn2[C@@H]1O[C@H](COS(=O)(=O)NC(=O)c2ccccc2F)[C@@H](O)[C@H]1O    7.42
Nc1ncnc2c1ncn2[C@@H]1O[C@H](COS(=O)(=O)NC(=O)c2ccc(Cl)cc2O)[C@@H](O)[C@H]1O    7.92
Nc1ncnc2c1ncn2[C@@H]1O[C@H](COS(=O)(=O)NC(=O)c2cccnc2Cl)[C@@H](O)[C@H]1O    6.76
Nc1ncnc2c1ncn2[C@@H]1O[C@H](COS(=O)(=O)NC(=O)c2ccccc2)[C@@H](O)[C@H]1O    7.04

Could you now consider this next compound?
Q. Can you look up the measured pKi of `Nc1ncnc2c1ncn2[C@@H]1O[C@H](COS(=O)(=O)NC(=O)c2ccc(C(F)(F)F)cc2O)[C@@H](O)[C@H]1O` for me?
A. 5.36

====

# Test Target: Salicyl-AMP ligase / salicyl-S-ArCP synthetase (Mycobacterium tuberculosis, UniProt P71716)
# Assay Explanation: Inhibition of Mycobacterium tuberculosis recombinant MbtA expressed in Escherichia coli by ATP/PPi exchange assay
# Measurement Conditions: read-out: Ki app
pKi: −log10 of the molar value.
Use 5 as the dividing line for pKi, with the line itself on the 1 side and lower values as -1.

Use these answered entries as a reference point.
Nc1ncnc2c1ncn2[C@@H]1O[C@H](COS(=O)(=O)NC(=O)c2cccc(Cl)c2O)[C@@H](O)[C@H]1O    1
Nc1ncnc2c1ncn2[C@@H]1O[C@H](COS(=O)(=O)NC(=O)C2CCCCC2)[C@@H](O)[C@H]1O    -1
Nc1ncnc2c1ncn2[C@@H]1O[C@H](CNC(=O)c2coc3ccccc3c2=O)[C@@H](O)[C@H]1O    -1

Q. Reported pKi at or above 5? `Nc1ncnc2c1ncn2[C@@H]1O[C@H](CNC(=O)NC(=O)c2ccccc2O)[C@@H](O)[C@H]1O`
A. 1

Q. Reported pKi at or above 5? `COC(=O)NS(=O)(=O)OC[C@H]1O[C@@H](n2cnc3c(N)ncnc32)[C@H](O)[C@@H]1O`
A. 1

Q. Reported pKi at or above 5? `Nc1ncnc2c1ncn2[C@@H]1O[C@H](COS(=O)(=O)NC(=O)c2c(O)cccc2F)[C@@H](O)[C@H]1O`
A. 1

Q. Reported pKi at or above 5? `Nc1ncnc2c1ncn2[C@@H]1O[C@H](COS(=O)(=O)NC(=O)Cc2ccccc2)[C@@H](O)[C@H]1O`
A. -1

Q. Reported pKi at or above 5? `Nc1ncnc2c1ncn2[C@@H]1O[C@H](COS(=O)(=O)NC(=O)[C@@H](N)Cc2ccccc2)[C@@H](O)[C@H]1O`
A. -1

Q. Reported pKi at or above 5? `Nc1ncnc2c1ncn2[C@@H]1O[C@H](COS(=O)(=O)NC(=O)c2ccc(F)cc2O)[C@@H](O)[C@H]1O`
A. 1

Q. Reported pKi at or above 5? `Nc1ncnc2c1ncn2[C@@H]1O[C@H](COS(=O)(=O)NC(=O)c2cccc(O)c2O)[C@@H](O)[C@H]1O`
A. 1

Q. Reported pKi at or above 5? `Nc1ncnc2c1ncn2[C@@H]1O[C@H](COS(=O)(=O)NC(=O)c2ccc[nH]c2=O)[C@@H](O)[C@H]1O`
A. 1

Q. Reported pKi at or above 5? `CC(=O)NS(=O)(=O)OC[C@H]1O[C@@H](n2cnc3c(N)ncnc32)[C@H](O)[C@@H]1O`
A. -1

Q. Reported pKi at or above 5? `Nc1ncnc2c1ncn2[C@@H]1O[C@H](COS(=O)(=O)NC(=O)c2ccc(Br)cc2O)[C@@H](O)[C@H]1O`
A. 1

Q. Reported pKi at or above 5? `Nc1ncnc2c1ncn2[C@@H]1O[C@H](COS(=O)(=O)NC(=O)c2ccccc2Cl)[C@@H](O)[C@H]1O`
A. -1
